The values you see were collected from PubChem BioAssay (NCATS).

Tested on: HaCat
assay-text: Cytotoxic Profiling of Annotated Libraries Using Quantitative High-Throughput Screening (AID 1296008); note: nearly all actives have a fitted effect of over 60% in size
test-conditions: Five cell lines viability, CellTiter-Glo ATP luminescence, 48-72 h
Inconclusive results are not listed. Active and inactive are the calls of the source. Calls come from the whole dose curve; as a rule, active = well fitted inhibition curve with a large enough effect; inconclusive = small, poorly fitted or top-dose-only effect; inactive = flat fitted curve, though single readings scatter.
Classes to choose from: TRUE (active), FALSE (inactive)

Solved entries:
# molecule, system, classification
records = [
    ("O=C(O)c1cc(-c2ccccc2)nc2ccccc12", "HaCat", "FALSE"),
    ("C[C@@H]1CCN(C(=O)CC#N)C[C@H]1N(C)c1ncnc2[nH]ccc12", "HaCat", "TRUE"),
    ("CNC1CCC(N(Cc2cccc(-c3ccncc3)c2)C(=O)c2sc3c(F)ccc(F)c3c2Cl)CC1 (centres undefined)", "HaCat", "FALSE"),
]

Status in this test for "CC[C@]1(O)C[C@@H]2CN(CCc3c([nH]c4ccccc34)[C@@](C(=O)OC)(c3cc4c(cc3OC)N(C)[C@H]3[C@@](O)(C(=O)OC)[C@H](OC(C)=O)[C@]5(CC)C=CCN6CC[C@]43[C@@H]65)C2)C1" ?
FALSE
